Recorded values, source patent US10696615B2.

// reported log10(LC50 (concentration killing 50% of cells)) per item
# System: HCT-116
# protocol.summary: NCI in vitro cancer screen, Colon Cancer
# Assay type: cell-based, human
# measurement.conditions: Homo sapiens, HCT-116
All values: log10 LC50 (concentration killing 50% of cells) [µM].

Example results:
| structure.string | subject.of.test | val |
| --- | --- | --- |
| CC(C)=CCOc1cc(O)cc(/C=C/c2ccc(O)c(O)c2)c1 | HCT-116 | 1.61 |
| COc1cc(/C=C/c2cc(O)cc(OCC=C(C)C)c2)ccc1O | HCT-116 | 1.60 |
| COc1cc(/C=C/c2cc(O)cc(OC)c2CC=C(C)C)ccc1O | HCT-116 | 1.61 |
| CC(C)=CCc1c(O)cc(/C=C/c2ccc(O)c(O)c2)c(CC=C(C)C)c1O | HCT-116 | 0.76 |
| COc1cc(/C=C/c2cc(O)c(CC=C(C)C)c(O)c2)ccc1O | HCT-116 | 1.66 |

As a next step, examine the compound that follows.
Which log10(LC50 (concentration killing 50% of cells)) is reported with HCT-116 for this entry: COc1cc(O)cc(/C=C/c2ccc(O)c(O)c2)c1CC=C(C)C ? 1.88
